Where do these numbers come from? They come from patent US20080021026A1.

- study_system: recombinant N-terminal GST-tagged human Rho kinase 1 (ROCK1, amino acids 1-535) (Homo sapiens, UniProt Q13464)
- Construct: ROCK1, amino acids 1-535; purchased Invitrogen Inc. PV-3691
- Sequence (Q13464 1-535): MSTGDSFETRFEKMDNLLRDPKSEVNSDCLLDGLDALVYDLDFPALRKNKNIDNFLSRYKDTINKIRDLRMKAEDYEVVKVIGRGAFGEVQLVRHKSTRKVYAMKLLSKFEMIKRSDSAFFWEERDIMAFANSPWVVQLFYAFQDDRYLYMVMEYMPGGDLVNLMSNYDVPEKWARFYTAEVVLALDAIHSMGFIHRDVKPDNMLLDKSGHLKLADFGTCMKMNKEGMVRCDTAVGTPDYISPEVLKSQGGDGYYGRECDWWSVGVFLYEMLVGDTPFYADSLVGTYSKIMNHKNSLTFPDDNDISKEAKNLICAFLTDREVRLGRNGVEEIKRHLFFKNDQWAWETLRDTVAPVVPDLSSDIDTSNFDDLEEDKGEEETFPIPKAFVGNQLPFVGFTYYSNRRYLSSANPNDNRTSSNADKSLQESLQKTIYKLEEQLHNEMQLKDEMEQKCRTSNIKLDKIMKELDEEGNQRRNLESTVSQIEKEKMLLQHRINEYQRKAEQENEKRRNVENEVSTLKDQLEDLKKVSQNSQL
- protocol_description: In vitro Rho kinase assay (luciferase-based ATP consumption), ROCK1
- Assay type: biochemical
- measurement_context: recombinant GST-tagged human ROCK1, luciferase-based ATP consumption; read-out: ROCK1 IC50
measure: IC50

// IC50 lookup, compound = Cc1c(-c2ccnc(N)n2)sc2ccc(CNC(=O)c3ccccc3-c3ccccc3)cc12 [Example 261] , result: > 5 µM

// IC50 lookup, compound = Cc1c(-c2ccnc(N)n2)sc2ccc(CNC(=O)c3cc(Cl)c(O)c(Cl)c3)cc12 [Example 275] , result: < 5 µM

// IC50 lookup, compound = Cc1c(-c2ccnc(N)n2)sc2ccc(Cc3cccc(C(=O)NCCCN4CCOCC4)c3)cc12 [Example 49] , result: < 5 µM

// IC50 lookup, compound = Cc1c(-c2ccnc(N)n2)sc2ccc(CNC(=O)c3ccccn3)cc12 [Example 111] , result: > 5 µM

// IC50 lookup, compound = Cc1c(-c2ccnc(N)n2)sc2ccc(Sc3cccc(O)c3)cc12 [Example 84] , result: < 5 µM

// IC50 lookup, compound = COc1ccc(C(=O)NCc2ccc3sc(-c4ccnc(N)n4)c(C)c3c2)c(O)c1 [Example 183] , result: > 5 µM

// IC50 lookup, compound = COc1ccccc1CC(=O)NCc1ccc2sc(-c3ccnc(N)n3)c(C)c2c1 [Example 177] , result: > 5 µM

// IC50 lookup, compound = Cc1c(-c2ccnc(N)n2)sc2ccc(Nc3cccc(NC(=O)c4ccc(OCCN5CCOCC5)cc4)c3)cc12 [Example 59] , result: < 5 µM

###

- study_system: recombinant N-terminal GST-tagged human Rho kinase 2 (ROCK2, amino acids 1-552) (Homo sapiens)
- Construct: ROCK2, amino acids 1-552; purchased Invitrogen Inc. PV3759
- protocol_description: In vitro Rho kinase assay (luciferase-based ATP consumption), ROCK2
- Format: biochemical
- measurement_context: recombinant GST-tagged human ROCK2, luciferase-based ATP consumption; read-out: ROCK2 IC50
pIC50: −log10 of the molar value.
Please go through the items and note down their pIC50.

// pIC50 lookup, molecule = Cc1cccc(C(=O)NCc2ccc3sc(-c4ccnc(N)n4)c(C)c3c2)c1O [Example 139] , result: > 5.30

// pIC50 lookup, molecule = Cc1c(-c2ccnc(N)n2)sc2ccc(Nc3cccc(OCc4ccccc4)c3)cc12 [Example 55] , result: > 5.30

// pIC50 lookup, molecule = Cc1c(-c2ccnc(N)n2)sc2ccc(CNC(=O)C3CCCN3C(=O)OCc3ccccc3)cc12 (centres unmarked) [Example 321] , result: < 5.30

// pIC50 lookup, molecule = Cc1c(-c2ccnc(N)n2)sc2ccc(Nc3ccccn3)cc12 [Example 64] , result: > 5.30

// pIC50 lookup, molecule = CCN(CC)CCCC(C)NC(=O)c1ccc2sc(-c3ccnc(N)n3)c(C)c2c1 (centres unmarked) [Example 431] , result: < 5.30

// pIC50 lookup, molecule = COc1cc(CN(C)C(=O)c2ccc3sc(-c4ccnc(N)n4)c(C)c3c2)cc(OC)c1OC [Example 555] , result: < 5.30

// pIC50 lookup, molecule = COc1nccc(Nc2ccc3sc(-c4ccnc(N)n4)c(C)c3c2)n1 [Example 74] , result: > 5.30

// pIC50 lookup, molecule = Cc1c(-c2ccnc(N)n2)sc2ccc(C(=O)N3CCN(C4CCCCC4)CC3)cc12 [Example 519] , result: < 5.30

// pIC50 lookup, molecule = CCCCCCCC(=O)NCc1ccc2sc(-c3ccnc(N)n3)c(C)c2c1 [Example 125] , result: > 5.30

// pIC50 lookup, molecule = Cc1c(-c2ccnc(N)n2)sc2ccc(CNC(=O)c3cc(F)c(F)cc3[N+](=O)[O-])cc12 [Example 272] , result: > 5.30

// pIC50 lookup, molecule = Cc1ccc(C)c(C(=O)NCc2ccc3sc(-c4ccnc(N)n4)c(C)c3c2)c1 [Example 134] , result: > 5.30

###

Please go through the items and note down their IC50.
- study_system: recombinant N-terminal GST-tagged human Rho kinase 1 (ROCK1, amino acids 1-535) (Homo sapiens)
- Construct: ROCK1, amino acids 1-535; purchased Invitrogen Inc. PV-3691
- protocol_description: In vitro Rho kinase assay (luciferase-based ATP consumption), ROCK1
- Assay type: biochemical
- measurement_context: recombinant GST-tagged human ROCK1, luciferase-based ATP consumption; read-out: ROCK1 IC50

// IC50 lookup, compound = Cc1c(-c2ccnc(N)n2)sc2ccc(Cc3cccc(C(=O)OC(C)C)c3)cc12 [Example 43] , result: < 5 µM

// IC50 lookup, compound = Cc1nc(Br)sc1C(=O)NCc1ccc2sc(-c3ccnc(N)n3)c(C)c2c1 [Example 296] , result: > 5 µM

// IC50 lookup, compound = Nc1nccc(-c2sc3ccc(Cl)cc3c2-c2ccccc2)n1 [Example 17] , result: > 5 µM

// IC50 lookup, compound = CC(=O)NCc1ccc2sc(-c3ccnc(N)n3)c(C)c2c1 [Example 95, CC(═O)NCc1ccc2sc(c(C)c2c1)-c3ccnc(N)n3] , result: > 5 µM

// IC50 lookup, compound = Cc1ccccc1OCC(=O)NCc1ccc2sc(-c3ccnc(N)n3)c(C)c2c1 [Example 175] , result: > 5 µM

// IC50 lookup, compound = Cc1c(-c2ccnc(N)n2)sc2ccc(CNC(=O)c3ccccc3O)cc12 [Example 122] , result: > 5 µM

// IC50 lookup, compound = Cc1c(-c2ccnc(N)n2)sc2ccc(CNC(=O)CC(C)CC(C)(C)C)cc12 (stereo not shown) [Example 158] , result: > 5 µM

// IC50 lookup, compound = Cc1ccc(C(=O)NCc2ccc3sc(-c4ccnc(N)n4)c(C)c3c2)cc1Br [Example 287] , result: > 5 µM

// IC50 lookup, compound = Cc1ccc(C)c(C(=O)NCc2ccc3sc(-c4ccnc(N)n4)c(C)c3c2)c1 [Example 134] , result: < 5 µM

// IC50 lookup, compound = CCCCCCCC(=O)NCc1ccc2sc(-c3ccnc(N)n3)c(C)c2c1 [Example 125] , result: > 5 µM

###

- study_system: recombinant N-terminal GST-tagged human Rho kinase 2 (ROCK2, amino acids 1-552) (Homo sapiens, UniProt O75116)
- Construct: ROCK2, amino acids 1-552; purchased Invitrogen Inc. PV3759
- Sequence (O75116 1-552): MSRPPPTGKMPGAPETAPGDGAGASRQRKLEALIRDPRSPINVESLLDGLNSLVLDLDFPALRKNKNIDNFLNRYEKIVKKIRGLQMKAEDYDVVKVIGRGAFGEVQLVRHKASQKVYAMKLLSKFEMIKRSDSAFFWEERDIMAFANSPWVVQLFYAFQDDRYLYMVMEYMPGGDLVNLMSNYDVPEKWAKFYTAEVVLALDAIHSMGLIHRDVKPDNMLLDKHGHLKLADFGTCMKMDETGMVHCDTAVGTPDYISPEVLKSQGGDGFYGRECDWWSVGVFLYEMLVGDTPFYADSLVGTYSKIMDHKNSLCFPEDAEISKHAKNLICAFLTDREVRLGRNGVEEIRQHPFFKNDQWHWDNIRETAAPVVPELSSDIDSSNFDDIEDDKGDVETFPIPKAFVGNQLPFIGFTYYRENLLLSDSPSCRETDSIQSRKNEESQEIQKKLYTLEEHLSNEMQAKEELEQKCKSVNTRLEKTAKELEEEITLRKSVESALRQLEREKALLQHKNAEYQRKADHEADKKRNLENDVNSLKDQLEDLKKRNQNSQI
- protocol_description: In vitro Rho kinase assay (luciferase-based ATP consumption), ROCK2
- Assay type: biochemical
- measurement_context: recombinant GST-tagged human ROCK2, luciferase-based ATP consumption; read-out: ROCK2 IC50
Please go through the items and note down their IC50.

// IC50 lookup, compound = Cc1c(-c2ccnc(N)n2)sc2ccc(Nc3cncc(C(=O)O)c3)cc12 [Example 71] , result: < 5 µM

// IC50 lookup, compound = Cc1c(-c2ccnc(N)n2)sc2ccc(C(=O)N3CCN(c4ccc(Cl)c(Cl)c4)CC3)cc12 [Example 567] , result: > 5 µM

// IC50 lookup, compound = Cc1c(-c2ccnc(N)n2)sc2ccc(C(=O)NC3CCCCCC3)cc12 [Example 370] , result: > 5 µM

// IC50 lookup, compound = Cc1c(-c2ccnc(N)n2)sc2ccc(Nc3cccc(NC(=O)c4ccc(O)cc4)c3)cc12 [Example 61] , result: < 5 µM

// IC50 lookup, compound = Cc1c(-c2ccnc(N)n2)sc2ccc(C(=O)Nc3ccc(OCCN4CCOCC4)cc3)cc12 [Example 21] , result: < 5 µM

// IC50 lookup, compound = COc1cc(Cl)ccc1C(=O)NCc1ccc2sc(-c3ccnc(N)n3)c(C)c2c1 [Example 233] , result: < 5 µM

// IC50 lookup, compound = COc1ccc(C(=O)CNC(=O)c2ccc3sc(-c4ccnc(N)n4)c(C)c3c2)cc1 [Example 455] , result: < 5 µM

// IC50 lookup, compound = CCN(C(=O)c1ccc2sc(-c3ccnc(N)n3)c(C)c2c1)C(C)C [Example 468] , result: < 5 µM

// IC50 lookup, compound = Cc1c(-c2ccnc(N)n2)sc2ccc(CNC(=O)c3ccc(C(C)C)cc3)cc12 [Example 166] , result: > 5 µM

// IC50 lookup, compound = Cc1c(-c2ccnc(N)n2)sc2ccc(C(=O)N3CCN(Cc4ccccc4)CC3)cc12 [Example 521] , result: > 5 µM

// IC50 lookup, compound = Cc1cccc(N2CCN(C(=O)c3ccc4sc(-c5ccnc(N)n5)c(C)c4c3)CC2)c1C [Example 534] , result: > 5 µM

// IC50 lookup, compound = Cc1c(-c2ccnc(N)n2)oc2ccc(Br)cc12 [Example 91] , result: < 5 µM

// IC50 lookup, compound = Cc1c(-c2ccnc(N)n2)sc2ccc(CNC(=O)c3c(O)ccc4ccccc34)cc12 [Example 237] , result: < 5 µM

// IC50 lookup, compound = Cc1c(-c2ccnc(N)n2)sc2ccc(C(=O)NC3CC3)cc12 [Example 333] , result: < 5 µM

// IC50 lookup, compound = Cc1c(-c2ccnc(N)n2)sc2ccc(CNC(=O)c3ncc[nH]3)cc12 [Example 103] , result: < 5 µM

// IC50 lookup, compound = Cc1c(-c2ccnc(N)n2)sc2ccc(C(=O)NCc3ccc(F)c(Cl)c3)cc12 [Example 432] , result: < 5 µM

// IC50 lookup, compound = Cc1c(-c2ccnc(N)n2)sc2ccc(Cc3cccc(C(=O)N4CCN(C)CC4)c3)cc12 [Example 50] , result: < 5 µM

// IC50 lookup, compound = Cc1c(-c2ccnc(N)n2)sc2ccc(C(=O)N3CCCC(c4ccc(C(F)(F)F)cc4)C3)cc12 (stereo not shown) [Example 571] , result: > 5 µM

// IC50 lookup, compound = Cc1c(-c2ccnc(N)n2)sc2ccc(C(=O)NCC(C)c3ccccc3)cc12 (stereo not shown) [Example 396] , result: < 5 µM
